All figures here come from ChEMBL document CHEMBL1144084.

# System: L1210
# measurementDescription: Cell cycle arrest in mouse L1210 cells by accumulation at G2M phase after 21 hrs relative to control
# Format: functional
Calls of active or inactive are those of the source. No cut-off for these calls is given here.
measurementName: Activity

The examples below pair each entry with its known result.
| smilesStr | targetOfAssay | valueMeasured |
| --- | --- | --- |
| CO[C@H]1[C@@H](O)[C@H](O)[C@@H](c2ccccc2)OC(=O)C[C@H]1OC | L1210 | inactive |
| O=C1C[C@@H](Cl)[C@@H]2O[C@H](c3ccccc3)[C@@H](O)[C@@H]2O1 | L1210 | 35% |
| O=C1C=C[C@@H]2O[C@H](c3ccccc3)[C@@H](O)[C@@H]2O1 | L1210 | 35% |
| O=C1C=C[C@@H]2O[C@H](c3c([N+](=O)[O-])cccc3[N+](=O)[O-])[C@@H](O)[C@@H]2O1 | L1210 | inactive |

Please turn your attention to the following entry.
Tell me Activity of O=C1C=C[C@@H]2O[C@H](c3ccc([N+](=O)[O-])cc3)[C@@H](O)[C@@H]2O1 when tested on L1210.
35%
